Target: SARS-CoV-2 RdRP (Severe acute respiratory syndrome coronavirus 2 (2019-nCoV) (SARS-CoV-2))
Assay: Enzymatic assay for RdRP (AlphaScreen, BPS Biosciences)
Type: biochemical
ENDPOINT_NAME: IC50 (µM)
# unit: µM | format: bare number

Answer with the recorded IC50 of C=C1CC[C@H](O)C/C1=C/C=C1\CCC[C@@]2(C)[C@H]1CC[C@@H]2[C@@](C)(O)CCCC(C)C [20S(OH)D3] only. 2.6

###

Target: SARS-CoV-2 RdRP (Severe acute respiratory syndrome coronavirus 2 (2019-nCoV) (SARS-CoV-2), UniProt P0DTD1)
Test: Enzymatic assay for RdRP (AlphaScreen, BPS Biosciences)
Format: biochemical
Details: read-out: IC50 for inhibition of the enzyme activity of RdRP
ENDPOINT_NAME: IC50
Show the value, then the unit it is measured in.

Some compounds with known IC50 results, for comparison:
{"COMPOUND": "CC(C)CCC[C@](C)(O)[C@H]1CC[C@H]2C3=CC=C4C[C@@H](O)CC[C@@]4(C)[C@@H]3CC[C@@]21C [20S(OH)L3, 9β,10α-cholesta-5,7-diene-3β,20-diol]", "IC50": "1000 nM"}
{"COMPOUND": "C[C@H](CCCC(C)(C)O)[C@H]1CC[C@H]2C3=CC=C4C[C@@H](O)CC[C@@]4(C)[C@@H]3CC[C@]12C", "IC50": "500 nM"}
{"COMPOUND": "CC(C)CCC[C@](C)(O)[C@H]1CC[C@H]2C3=CC=C4C[C@@H](O)CC[C@]4(C)[C@H]3CC[C@@]21C [20S(OH)7DHC, Cholesta-5,7-dien-3β,20-diol]", "IC50": "4700 nM"}

Next compound, IC50 to be filled in.
Answer with the recorded IC50 of `CC(C)[C@@H](O)CC[C@@H](C)[C@H]1CC[C@H]2C3=CC=C4C[C@@H](O)CC[C@@]4(C)[C@@H]3CC[C@]12C` only. 2500 nM
